experiment: qHTS Assay for Spectroscopic Profiling in A350 Spectral Region; details: Compound autofluorescence, 340/450 nm, Alexa 350 dye-equivalents
The campaign covered roughly 59,000 compounds. About 6,500 (11%) were called active. Not shown: some 15% with an inconclusive outcome. Cut-off read from the data, not from the text of the source: active = max dye-equivalent concentration above about 10 nM; inconclusive = mostly about 1.1 nM to 9.6 nM; inactive = weaker than that. The entries come from a sample that favours actives as a whole.
Write down one outcome, taken from active, inactive

Given S=c1c2[nH]cnc2ncn1CCSc1ncnc2nc[nH]c12 , state the outcome it received in this test.
inactive

# iterate: CCCCn1nnnc1NCc1cc(OC)c(OC)c(OC)c1
inactive

---

assay: qHTS Assay for Spectroscopic Profiling in A350 Spectral Region; conditions: Compound autofluorescence, 340/450 nm, Alexa 350 dye-equivalents
Hit rate of the full screen: of about 59,000 compounds, about 6,500 (11%) were called active. Another 15% or so got no clear call; they are omitted. Rule as the data show it: active = max dye-equivalent concentration above about 10 nM; inconclusive = mostly about 1.1 nM to 9.6 nM; inactive = weaker than that. Only a selection was taken, and actives are over-represented in it overall.
Choose one outcome from this list and give only that: active, inactive

SUBSTANCE SMILES | DISCRETE LABEL
Cc1cccc(CNc2cc(-c3ccccc3Cl)ncn2)c1 | inactive
CC1(C)C/C(=C(/C#N)C(N)=O)CCO1 | inactive
O=C(CSc1nc(-c2ccco2)cc(C(F)(F)F)n1)NCc1cccs1 | inactive

# lookup: test call for c1nc(COc2nsnc2N2CCOCC2)cs1
inactive

How about COc1ccccc1CNc1ncnc2ccc(-c3c(C)noc3C)cc12 ?
inactive

What about COCCNc1cc(-c2c(C)noc2C)ncn1 ?
active

---

Experiment: qHTS Assay for Spectroscopic Profiling in A350 Spectral Region
Details: Compound autofluorescence, 340/450 nm, Alexa 350 dye-equivalents
Description: NIH Molecular Libraries Screening Centers Network [MLSCN] NIH Chemical Genomics Center [NCGC] Occasionally, the artifactual effect may originate from the compounds own spectral or other biophysical properties which generally tend to track its assay concentration. […] A standard curve of Alexa 350 (A 350) present on each plate as six-point concentration series, was used to compute a normalized fluorescence response, termed dye-equivalent concentration, for each compound at each concentration. […]
Out of some 59,000 compounds screened, about 6,500 (11%) were called active. Not shown: some 15% with an inconclusive outcome. Rule as the data show it: active = max dye-equivalent concentration above about 10 nM; inconclusive = mostly about 1.1 nM to 9.6 nM; inactive = weaker than that. What follows is part of a selection rich in actives, with near analogues and random picks from the rest.
Entry note: the call must match one of active, inactive

COMPOUND | DISCRETE LABEL
O=C(CN(c1ccc2c(c1)OCCO2)S(=O)(=O)c1ccccc1)Nc1ccc2c(c1)OCO2 | inactive
O=C(NCCc1ccco1)c1nn(Cc2ccccc2)c(=O)c2ccccc12 | inactive
CCOc1ccccc1Nc1nnc(SCC(=O)Nc2cc(C)on2)s1 | inactive

Recorded test call requested for O=C(c1cnccn1)N1CCC2(CCN(Cc3cc(C(F)(F)F)cc(C(F)(F)F)c3)CC2)CC1
inactive

What do you have for O=C(NCCCNC(=O)NC1CCCCC1)NC1CCCCC1 ?
inactive

Item: CC(C)C(c1nnnn1Cc1ccccc1)N1CCC(C(N)=O)CC1 (stereo not drawn)
inactive

Item: O=C(CN1C(=O)CCS(=O)(=O)c2ccccc21)NCc1ccc(F)cc1
inactive

Repeat with CCN(CC)S(=O)(=O)c1ccc2[nH]cc(C(=O)NCCc3ccccc3)c(=O)c2c1
inactive

Now consider N#Cc1ccc(CN2CCCC3(CCN(C(=O)c4ccco4)CC3)C2)cc1 .
inactive

Try the compound COC(=O)C1=C(C)NC2=C(C(=O)c3ccccc32)C1c1ccc(-c2ccc(C(=O)O)cc2)o1 (stereo not drawn)
inactive

Moving on to C/C(Cl)=C\Cn1c(Nc2cccc(C)c2)nc2c1c(=O)n(C)c(=O)n2C
inactive

Record: N#CC1=C(N)C(C#N)(C#N)[C@H](c2ccsc2)[C@H]2COCC=C12
active

---

test: qHTS Assay for Spectroscopic Profiling in A350 Spectral Region; conditions: Compound autofluorescence, 340/450 nm, Alexa 350 dye-equivalents
Screen size: about 59,000 compounds; about 6,500 (11%) were called active. Inconclusive results (about 15%) are left out. Rule as the data show it: active = max dye-equivalent concentration above about 10 nM; inconclusive = mostly about 1.1 nM to 9.6 nM; inactive = weaker than that. The full list was thinned out, with actives kept by preference.
Response enum: yes (active), no (inactive)

COMPOUND | DISCRETE LABEL
COc1cccc(-c2nc(Nc3ccncc3)c3ccccc3n2)c1 | no
COc1cc(C2C(C#N)=C(N)Oc3n[nH]c(-c4ccccn4)c32)cc(OC)c1OC (stereo unspecified) | no
CCOC(=O)c1cc(-c2ccc(Cl)s2)nc2c1c(C)nn2C | yes
c1ccc2c(Nc3ccncc3)nc(-c3ccc4c(c3)OCO4)nc2c1 | yes
Cc1ccc(C)c(NC(=O)C2CCCN2C(=O)OC(C)(C)C)c1 (stereo unspecified) | no

# input for lookup
Tell me the recorded outcome of this test for Cc1cc(C)c2c(c1)c(C)cc1nnc(SCC(=O)NCc3ccco3)n12 .
no

---

assay: qHTS Assay for Spectroscopic Profiling in A350 Spectral Region; details: Compound autofluorescence, 340/450 nm, Alexa 350 dye-equivalents
Hit rate of the full screen: of about 59,000 compounds, about 6,500 (11%) were called active. Inconclusive results (about 15%) are left out. Rule as the data show it: active = max dye-equivalent concentration above about 10 nM; inconclusive = mostly about 1.1 nM to 9.6 nM; inactive = weaker than that. This excerpt belongs to a sample that is enriched for actives.
Would you mind answering with one of these outcomes? active, inactive

What is the recorded call for this compound in the test? CCc1nc2oc3ccccc3c(=O)c2c(=O)n1Cc1ccc(OC)cc1
inactive

# repeat for O=C(Oc1ccc2c(c1)CN(Cc1ccccc1)CO2)c1ccccc1
inactive

Same question, CC(C)(C)c1cc(C(=O)NCc2cccnc2)ccn1 this time
inactive

Another compound to look at: COc1ncc2nc(-c3ccc(Cl)cc3)c(=O)n(C)c2n1
active

Now consider O=C(O)c1ccc(NC(=O)C2CCCCC2)cc1 and answer again.
inactive

Please give the result for CCOc1ccccc1N=C1NC(=O)CS1 too.
inactive

What about Cc1noc(C)c1CSc1nnc2ccc3ccccc3n12 ?
inactive

Record: Cc1nc(C)c(C(=O)Nc2ccc(C)c(F)c2)o1
inactive

Then this compound: COc1cccc(Cn2c(=O)c(-c3cc(F)cc(F)c3)nc3cnc(OC)nc32)c1
inactive

What do we get for COCCn1c(=O)[nH]c2cc(C(=O)NCc3cccnc3)ccc2c1=O ?
active

// next record CC(C)(C)n1nnnc1C(c1ccc2ncccc2c1)N1CCSCC1 (configuration not stated)
inactive

Try COc1ccc(-c2cc(C(=O)NC(C(=O)O)C(C)C)c(C)o2)cc1OC (configuration not stated) next.
inactive

---

test: qHTS Assay for Spectroscopic Profiling in A350 Spectral Region; conditions: Compound autofluorescence, 340/450 nm, Alexa 350 dye-equivalents
The whole screen tested about 59,000 compounds, of which about 6,500 (11%) were called active. Roughly 15% stayed inconclusive and do not appear here. Rule as the data show it: active = max dye-equivalent concentration above about 10 nM; inconclusive = mostly about 1.1 nM to 9.6 nM; inactive = weaker than that. The list comes from a sample in which actives are over-represented; it also holds close analogues and randomly drawn compounds.
Can you answer with just one of these options? 1 for active, 0 for inactive

SUBSTANCE SMILES | DISCRETE LABEL
Cc1ccc(Cn2c(C)nc3c(c2=O)c2nc4ccccc4nc2n3Cc2ccco2)cc1 | 1
Cc1cnc(CNc2cc(-c3c(C)noc3C)ncn2)cn1 | 1
COc1ccc(-n2c(SCC(=O)NCc3cccs3)nnc2-c2ccoc2C)cc1 | 1
Cc1nc2ccccc2c(=O)n1CCCn1ccnc1 | 0
O=c1[nH]c(CSc2ncc(-c3ccc(F)cc3)n2Cc2ccco2)nc2ccccc12 | 0

// return assay outcome for COCCCn1c2nc3ccccc3nc2c2c(=O)n(Cc3ccc(Cl)cc3)c(C)nc21
1

Another compound to look at: Cc1nn(-c2ccccc2)c(C)c1C(=O)OCC(=O)NC(=O)NC1CCCCC1
0

Try this compound next: Cc1nc2c(c(=O)n1Cc1ccco1)c1nc3ccccc3nc1n2Cc1ccccc1
1

---

assay: qHTS Assay for Spectroscopic Profiling in A350 Spectral Region; conditions: Compound autofluorescence, 340/450 nm, Alexa 350 dye-equivalents; hits give high values
Screen size: about 59,000 compounds; about 6,500 (11%) were called active. Not shown: some 15% with an inconclusive outcome. Many of the other results were omitted from the sample, so actives are more common in it than they were.
MEASURE: max dye-equivalent concentration

Solved cases (4 shown):
MOLECULE | max dye-equivalent concentration
COc1cccc(N2C(=O)CC(N3CCN(S(=O)(=O)c4ccccc4)CC3)C2=O)c1 (stereo not given) | inactive
COc1ccc(S(=O)(=O)N2CCN(c3ncnc4c(-c5ccccc5)nsc34)CC2)cc1 | 120 nM (active)
CCOC(=O)c1c(C)c(C(=O)NCCc2ccc(S(N)(=O)=O)cc2)c(C)n1CC | inactive
Cc1cc(C(F)(F)F)n2ncc(-c3ccccc3)c2n1 | 12 nM (active)

// switching to the query molecule
# query: max dye-equivalent concentration of entry CCOc1ccccc1NC(=O)CCN1CCN(S(=O)(=O)c2ccc(OC)cc2)CC1
inactive

---

assay: qHTS Assay for Spectroscopic Profiling in A350 Spectral Region; conditions: Compound autofluorescence, 340/450 nm, Alexa 350 dye-equivalents
The campaign covered roughly 59,000 compounds. About 6,500 (11%) were called active. Inconclusive results (about 15%) are left out. Cut-off read from the data, not from the text of the source: active = max dye-equivalent concentration above about 10 nM; inconclusive = mostly about 1.1 nM to 9.6 nM; inactive = weaker than that. The full list was thinned out, with actives kept by preference.
Your answer must be one of the following: 1 (active), -1 (inactive)

COMPOUND | DISCRETE LABEL
COCCNC(=O)c1snc2ccc(Cl)cc12 | 1
Cc1ccsc1C(=O)OCC(=O)c1cc(C)n(CC2CCCO2)c1C (stereo unspecified) | -1
COCCNC(=O)c1ccccc1-c1nc(-c2ccccc2Cl)no1 | -1
Cc1ccc2nc(NC3=NCN(CCc4ccccc4)CN3)nc(C)c2c1 | -1
COCC(C)NC(=O)c1ccc(Cl)c(Cl)c1 (stereo unspecified) | -1

So what was the verdict on Cc1cc(-n2nc(C)cc2C)n2ncc(-c3ccccc3)c2n1 in this test?
-1
